tested on: MOLT-4; assay: NCI tumour cell line growth inhibition, 48 h
Calls of active or inactive are those of the source. No stated cut-off is given here; in the data, active = GI50 up to about 1.1 µM and inactive = higher.
Outcomes: active, inactive

>>> print(df.to_string())
                                    compound  class_assignment
 0  CC(C)(OCc1ccccc1)c1ccccc1P(c1ccccc1)c1ccccc1          inactive
 1  O[C@@]12Cc3c([nH]c4ccccc34)[C@@H]3Oc4cccc5c4[C@@]31CCN(CC1CC1)[C@@H]2C5          inactive
 2  O=C1N/C(=N/N=C/c2c[nH]c3ccccc23)N/C1=C\c1cccs1          inactive
 3  C=C1C(=O)OC2CC(C)C3(O)CCC(=O)C3(C)CC12 (centres undefined)          inactive
 4  O=[N+]([O-])c1ccc2c(c1)c(OCc1ccccc1)nn2Cc1ccccc1          inactive
 5  CC(C)NC(=O)OCc1c(COC(=O)NC(C)C)c(-c2ccc[n+](COC(=O)C(C)C)c2)n2c1CCC2          inactive
 6  Clc1ccc(/C=C/c2nc(Cl)c(-c3ccc(Cl)cc3)c(Cl)n2)cc1          inactive
 7  CCCCN1CCC(O)(c2cc(C(=O)O)[nH]c2-c2cc(C)no2)C1=O (centres undefined)          inactive
 8   CSc1c(C#N)c(=O)n(N)c2c1c(C)nn2-c1ccccc1          inactive
 9      COc1cc2c(cc1OC)-c1cc3ccccc3c[n+]1CC2          inactive
10  Cc1cn(C2CC(O)C(CO)C2C)c(=O)[nH]c1=O (centres undefined)          inactive
11           O/N=N\c1nc(-c2ccccn2)nc2ccccc12            active
12  CCCCC/C=C1/CC(CO)(COC(=O)CC(C(C)C)C(C)C)OC1=O (centres undefined)          inactive
13  CC1(C)OC2OC(COC(=O)c3ccc(C#N)cc3)C3OC(C)(C)OC3C2O1 (centres undefined)          inactive

---

test system: Malme-3M; assay: NCI tumour cell line growth inhibition, 48 h
Active and inactive are the calls of the source. Cut-off read from the data, not from the text of the source: active = GI50 up to about 1.1 µM and inactive = higher.
We begin with a simple list: items and their reported GI50.
endpoint.label: GI50

>>> print(df.to_string())
                                    molecule  experimental_system                result
 0  CCCOc1ccc(/C(Cl)=C(\C=O)c2ccc(OC)c(OC)c2)cc1OCCC             Malme-3M     0.804 µM (active)
 1  C[C@H]1CN[C@@H]2[C@@H](C)[C@H]3[C@@H](C[C@H]4[C@@H]5CC[C@H]6C[C@@H](N)CC[C@]6(C)[C@H]5CC[C@]34C)O[C@@]2(O)C1             Malme-3M    1.64 µM (inactive)
 2        Cc1n[nH]c(=O)n1N1C(=O)c2ccccc2C1=O             Malme-3M   > 100 µM (inactive)
 3    COc1ccc(-c2cc(=O)c3ccccc3[nH]2)c(OC)c1             Malme-3M   > 100 µM (inactive)
 4         CSc1cc(-c2cc3ccccc3o2)oc(=O)c1C#N             Malme-3M     3.6 µM (inactive)
 5  O=S(=O)(N/N=C/c1ccc(/C=N/NS(=O)(=O)c2ccccc2)cc1)c1ccccc1             Malme-3M   > 100 µM (inactive)
 6  Cc1cccc(C)c1NC(=O)C(=O)C(C#N)c1ccccc1 (stereo not given)             Malme-3M   > 100 µM (inactive)
 7         CCCCCCCCCCCCCCCCCc1cc(Cl)nc(Cl)n1             Malme-3M   > 100 µM (inactive)
 8  CN(C)CCn1c(=O)c2ccc(NCCNCCO)c3c(=O)c4cc(O)ccc4n(c1=O)c23             Malme-3M    2.42 µM (inactive)
 9  C=C(C)C(=O)O[C@H]1CC2=C[C@@H](C[C@@]3(C)O[C@@H]3[C@H]3OC(=O)C(=C)[C@@H]31)OC2=O             Malme-3M    2.12 µM (inactive)
10  Cc1cc2c(C)n(Cc3ccc(Cl)cc3Cl)nc2c(C#N)c1C             Malme-3M    24.9 µM (inactive)
11  COC1C(OC(=O)/C=C/C=C/C=C/C=C/C(=O)O)CCC2(CO2)C1C1(C)OC1CC=C(C)C (stereo not given)             Malme-3M    26.2 µM (inactive)
12  CCOc1ccc(/N=N/C2C(=O)N(C(=O)CC(=O)Nc3ccc(Cl)cc3)N=C2C)cc1 (stereo not given)             Malme-3M   > 100 µM (inactive)
13  CC(=O)Nc1cc2cc(NS(=O)(=O)c3cc(C(F)(F)F)cc(C(F)(F)F)c3)ccc2oc1=O             Malme-3M   > 100 µM (inactive)
14       O=c1nc(/C=C/c2ccccc2Cl)cc2n1CCN2CCO             Malme-3M   > 100 µM (inactive)
15  COc1cccc2c1cc([N+](=O)[O-])c1c(C(=O)O)cc3c(c12)OCO3             Malme-3M    46.8 µM (inactive)
16  Cc1ccc2c(=O)cc(-c3ccc(-c4ccccc4)s3)[nH]c2n1             Malme-3M  > 42.9 µM (inactive)
17  Cc1c(/C=N\NC(=S)N2CCN(C(=S)N/N=C\c3c(C)n(C)n(-c4ccccc4)c3=O)CC2)c(=O)n(-c2ccccc2)n1C             Malme-3M    72.4 µM (inactive)
18  CC1(C)O[C@@H](C[C@]2(C#N)C[C@H](CCl)OC(C)(C)O2)C[C@@H](C#N)O1             Malme-3M   > 100 µM (inactive)
19           CCc1n[nH]c(=O)n1-c1ccc2ccccc2c1             Malme-3M   > 100 µM (inactive)
20                 O=C1CCCC/C(=C/c2ccccc2)N1             Malme-3M   > 100 µM (inactive)
21  N#CCC(=O)N/N=C1/C(=O)NC(=O)C(=O)C1c1nc2ccccc2s1 (stereo not given)             Malme-3M   > 100 µM (inactive)
22  O=S(=O)(c1ccc(NC(=S)N/N=C/c2ccccc2O)cc1)N1CCCCC1             Malme-3M     0.181 µM (active)
23         CN(c1ccc(Cl)cc1)S(=O)(=O)c1ccccc1             Malme-3M   > 100 µM (inactive)
24      CC(=O)OC/C=C(/C=C/CNC1CCCCC1)OC(C)=O             Malme-3M    14.9 µM (inactive)
25  COC(CCC[N+](C)(C)C)CC[N+](C)(C)C (stereo not given)             Malme-3M   > 100 µM (inactive)
26       O=c1/c(=C/c2ccccc2O)sc2nc3ccccc3n12             Malme-3M    32.2 µM (inactive)
27  CCC(C(=O)c1cccs1)C(O)(C(F)(F)F)C(F)(F)F (stereo not given)             Malme-3M   > 100 µM (inactive)
28  C[N+]1(CCCCN2c3ccccc3Sc3cc(N=[N+]=[N-])ccc32)CCN(C(=O)CCNC(=O)Cc2ccc(C(=O)c3ccccc3)cc2)CC1             Malme-3M    18.7 µM (inactive)
29  CC1(C)COP(=S)(c2ccccn2)O[C@@H]1c1ccccc1 (stereo not given in full)             Malme-3M   > 100 µM (inactive)
30  CCCCN1CCC(O)(c2cc(C(=O)O)[nH]c2-c2cc(C)no2)C1=O (stereo not given)             Malme-3M   > 100 µM (inactive)
31  COC1=CC(=O)c2c(O)c3c(c(O)c2C1=O)CC(C)(O)OC3 (stereo not given)             Malme-3M     0.653 µM (active)
32  O=C(O)C(C1NCCS1)N1C(=O)c2ccccc2C1=O (stereo not given)             Malme-3M   > 100 µM (inactive)
33  CC1(C)OC2OC(COC(=O)c3ccc(C#N)cc3)C3OC(C)(C)OC3C2O1 (stereo not given)             Malme-3M      61 µM (inactive)
34  O=C(C(=O)N1CC2C=CC1CC2)c1c[nH]c2ccccc12 (stereo not given)             Malme-3M   > 100 µM (inactive)
35  O=CN1CCN(CC(O)CN2CCCCC2)CC1 (stereo not given)             Malme-3M   > 100 µM (inactive)
36  CC(=O)OCC(=O)[C@@]12OC(C)(C)O[C@@H]1C[C@H]1[C@@H]3CC=C4C[C@@H](O)CC[C@]4(C)[C@H]3CC[C@@]12C             Malme-3M   > 100 µM (inactive)
37           COc1ccccc1NC(=S)Nc1cc(C)cc(C)n1             Malme-3M   > 100 µM (inactive)
38                       O=c1ccc2ccc(O)cc2o1             Malme-3M   > 100 µM (inactive)
39      CN(C)c1ccc(C(=NN)c2ccc(N(C)C)cc2)cc1             Malme-3M    53.3 µM (inactive)

Data provenance is ChEMBL document CHEMBL1201862.
